test system: NCI-H522 lung; assay: NCI tumour cell line growth inhibition, 48 h
Overview of reported log10 TGI across a group of compounds:
Response schema: value (number) is log10 of TGI in units of µM.

Study these solved cases before continuing.
# compound, assay target, log10 TGI
rows = [
    ("Cc1[nH]ccc2cc3nc4ccccc4c3cc12", "NCI-H522 lung", 0.99),
    ("CCC[CH2][Sn]1([CH2]CCC)[O]CC([CH2][Sn]([c]2ccccc2)([c]2ccccc2)[c]2ccccc2)[O]1 (stereo unspecified)", "NCI-H522 lung", 0.53),
    ("C[C@@H]1CCC2[C@@H](C)[C@H](OC(=O)CCC(=O)NCCNC(=O)Cc3cc(=O)oc4cc(N(C)C)ccc34)O[C@@H]3O[C@]4(C)CC[C@@H]1C23OO4 (stereo partly specified)", "NCI-H522 lung", 1.05),
]

Return reported log10 TGI; argument: CCOC(=S)SC/C(=N\OC(C)(C)OC)c1ccccc1
1.77

Do the same for CN(C)C(=S)/N=c1\ssc(=S)n1Cc1ccccn1 please
0.62
